Sourced from patent EP4585616A1

Listing of entries alongside the reported pEC50.
Biological target: T1, ROR1 extracellular segment with Frizzled domain removed on CHO cells (human, UniProt Q01973 30-472, limits assumed)
T1 construct: Transfected into CHO cells; also called CHO-ROR1 (with Frizzled domain removed)
T1 sequence (Q01973 other isoform, or with tags, fused parts or gaps limits assumed): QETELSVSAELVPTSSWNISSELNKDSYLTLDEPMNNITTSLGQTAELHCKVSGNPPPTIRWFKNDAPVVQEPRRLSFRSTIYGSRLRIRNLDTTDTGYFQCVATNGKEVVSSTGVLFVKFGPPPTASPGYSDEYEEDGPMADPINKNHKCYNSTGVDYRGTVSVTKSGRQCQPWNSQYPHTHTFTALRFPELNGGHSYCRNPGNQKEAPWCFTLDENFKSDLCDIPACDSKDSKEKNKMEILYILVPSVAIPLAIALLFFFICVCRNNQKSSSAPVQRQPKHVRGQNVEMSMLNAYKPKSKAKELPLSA
Test: FACS, CHO-ROR1 (with Frizzled domain removed) cells
pEC50: −log10 of the molar value.

[
  {
    "BINDER": "UC-961 (antibody, V domains shown, Control antibody of US20150232569A1, made with human IgG1 heavy chain constant region and Kappa chain constant region) VH: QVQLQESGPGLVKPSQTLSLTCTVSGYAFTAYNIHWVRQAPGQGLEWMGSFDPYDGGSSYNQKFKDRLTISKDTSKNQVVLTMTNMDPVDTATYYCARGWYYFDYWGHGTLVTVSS VL: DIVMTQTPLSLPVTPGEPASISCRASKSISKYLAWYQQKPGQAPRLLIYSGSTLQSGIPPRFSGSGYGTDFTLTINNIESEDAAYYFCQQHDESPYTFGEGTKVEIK",
    "pEC50": 8.95
  },
  {
    "BINDER": "mAb007c (antibody, V domains shown, Human-mouse chimeric) VH: EVQLQQSGPELVKPGASVKMSCKASGYTFTDYNMHWVKQSHGKSLEWIGYINPNNGGTSYNQKFKGKATLTVNKSSSTAYMELRSLTSDDSAVYYCARRGYGSGYAMDYWGQGTSVTVSS VL: DVLMTQTPLSLPVSLGDQASISCRSSQSIVHTNGNTYLEWYLQNPGQSPKLLIYKVFNRFSGVPDRFSGSGSGTDFTLKISRVEAEDLGVYYCFQGSLFPYTFGGGTKLEIK",
    "pEC50": 8.90
  }
]
